Data provenance is paper PMC8228192.

Target: T1, ARM repeat domain of human β-catenin (residues 134–671) (human, UniProt P35222 134-671)
T1 construct: β-catenin, human, ARM repeat domain, residues 134–671; Plasmid was a gift from W.I. Weis; source: E. coli C41, purified (glutathione-Sepharose 4B, thrombin cleavage on resin, Mono-Q)
T1 sequence (looked up): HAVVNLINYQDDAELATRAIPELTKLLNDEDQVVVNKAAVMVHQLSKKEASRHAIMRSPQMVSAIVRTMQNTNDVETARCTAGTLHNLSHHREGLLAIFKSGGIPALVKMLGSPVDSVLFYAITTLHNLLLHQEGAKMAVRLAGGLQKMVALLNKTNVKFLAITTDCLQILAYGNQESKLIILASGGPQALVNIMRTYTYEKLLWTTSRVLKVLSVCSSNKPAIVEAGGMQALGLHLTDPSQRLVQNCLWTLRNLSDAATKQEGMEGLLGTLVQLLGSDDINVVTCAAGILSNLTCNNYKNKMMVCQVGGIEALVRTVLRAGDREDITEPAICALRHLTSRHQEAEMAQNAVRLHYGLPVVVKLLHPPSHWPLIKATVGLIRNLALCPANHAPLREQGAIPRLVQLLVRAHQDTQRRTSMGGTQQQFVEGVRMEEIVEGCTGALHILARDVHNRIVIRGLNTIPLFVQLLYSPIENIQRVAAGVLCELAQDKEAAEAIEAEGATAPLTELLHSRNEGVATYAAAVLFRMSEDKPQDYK
Assay: stopped-flow fluorescence kinetics (dissociation); pre-formed 1:1 complex (200 nM) of labelled TCF7L2 and β-catenin mixed 1:1 with 50-times molar excess of unlabelled TCF7L2 (10 µM); PBS, 1 mM DTT, 15 °C; fitted to sums of exponential phases
Details: both partners purified
No end group written: not given here.
reported property: koff,major (major slow phase of biphasic dissociation) (s⁻¹)
Give the value in s⁻¹ but do not write s⁻¹ after it.

Here are 3 binders together with their reported answers.
TCF7L2 (1–54) S31C L41A, fluorescein-labelled (domain or fragment, UniProt Q9NQB0 1-54, looked up, One extra serine is left behind after thrombin cleavage of the tag; source: E. coli C41, purified (Ni-NTA, thrombin cleavage, Superdex 75), labelled with fluorescein maleimide) MPQLNGGGGDDLGANDELISFKDEGEQEEKC(fluorescein maleimide)SENSSAERDAADVKSSLVNESET    0.0993
TCF7L2 (1–54) S31C V44A, fluorescein-labelled (domain or fragment, UniProt Q9NQB0 1-54, looked up, One extra serine is left behind after thrombin cleavage of the tag; source: E. coli C41, purified (Ni-NTA, thrombin cleavage, Superdex 75), labelled with fluorescein maleimide) MPQLNGGGGDDLGANDELISFKDEGEQEEKC(fluorescein maleimide)SENSSAERDLADAKSSLVNESET    0.0742
TCF7L2 (1–54) S31C F21A, fluorescein-labelled (domain or fragment, UniProt Q9NQB0 1-54, looked up, One extra serine is left behind after thrombin cleavage of the tag; source: E. coli C41, purified (Ni-NTA, thrombin cleavage, Superdex 75), labelled with fluorescein maleimide) MPQLNGGGGDDLGANDELISAKDEGEQEEKC(fluorescein maleimide)SENSSAERDLADVKSSLVNESET    0.0258

Now take the following binder into account.
Report koff,major (major slow phase of biphasic dissociation) for TCF7L2 (1–54) S31C I19A, fluorescein-labelled (domain or fragment, UniProt Q9NQB0 1-54, looked up, One extra serine is left behind after thrombin cleavage of the tag; also called TCF7L2 I19A; source: E. coli C41, purified (Ni-NTA, thrombin cleavage, Superdex 75), labelled with fluorescein maleimide) MPQLNGGGGDDLGANDELASFKDEGEQEEKC(fluorescein maleimide)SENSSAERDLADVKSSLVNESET please.
0.011
